molecular target: Insulin-like growth factor 1 receptor (Homo sapiens); conditions: at 1 µM;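 note: each value is a mean percent inhibition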
Could you please report measured inhibition for the items listed next?

Query block: Fill in inhibition for record c1ccc(Oc2ccc(Nc3ncc(-c4ccccc4)o3)cc2)cc1
Result block: 2.01%

Query block: Give reported inhibition value for NC(=O)c1cc(-c2ccncc2)cc(-c2ccccc2)c1N
Result block: 5.9%

Query block: Give the measured inhibition for CN(C)CCOc1ccc(-c2cc(-c3ccc4c(c3)CCC4=NO)c(-c3ccncc3)o2)cc1
Result block: 0.2%

Query block: Answer with reported inhibition of Fc1ccc(-c2ncn(C3CCNCC3)c2-c2ccnc(Oc3ccc4c(c3)OCO4)n2)cc1
Result block: 2.16%

Query block: Entry NS(=O)(=O)c1ccc(N/N=C2\C(=O)Nc3ccc(C(=O)NCCCn4ccnc4)cc32)cc1 needs its inhibition filled in; supply it.
Result block: 3.17%

Query block: Indicate the recorded inhibition value for this compound: CCc1cccc(CC)c1/C=C/c1cncc(C(=O)NC)c1
Result block: 3.86%

Query block: Fill in inhibition for record O=C1Nc2ccccc2/C1=C/Nc1ccc(-n2cncn2)cc1
Result block: 16.7%

Query block: Given the compound COc1ccc2cc(-c3c(-c4ccncc4)nc(-c4ccc([S+](C)[O-])cc4C)n3C)ccc2c1 (stereo unspecified) , write its reported inhibition.
Result block: 1.27%

Query block: Consider the compound Cc1ccc(C(=O)NC2CCC2)cc1-c1ccc(C(=O)NCC2CC2)cc1 . State its measured inhibition.
Result block: 3.83%

Query block: Supply measured inhibition of COc1cc(Nc2ncc3c(C)nc(-c4cccc(C(F)(F)F)c4)n3n2)cc(OC)c1OC in your reply.
Result block: 5.74%

Query block: Supply inhibition value. Item: Cc1ccc(C(=O)NC(C)C)cc1-c1ccc(C(=O)NCC2CC2)cc1
Result block: -3.34%

Query block: Annotate the compound C[C@@H](Oc1cc(-n2cnc3ccc(OC4CCN(C)CC4)cc32)sc1C(N)=O)c1ccccc1Cl with its measured inhibition.
Result block: 0.05%

Query block: Write down inhibition measured for item C#Cc1cccc(Nc2ncnc3ccc(OCCCCNCCS(C)(=O)=O)cc23)c1
Result block: -2.48%

Query block: Retrieve inhibition measured for Fc1ccc(-c2ncn(CCCN3CCOCC3)c2-c2ccncc2)cc1 and print it.
Result block: -1.55%

Query block: Output inhibition of COc1cc(Nc2ncc(-c3ccccc3)o2)cc(OC)c1OC
Result block: 2.07%

Query block: Return inhibition (reported value) for this compound: O=C1Nc2ccc(I)cc2C1=Cc1cc(Br)c(O)c(Br)c1
Result block: 2.95%

Query block: Specify inhibition for COc1ccc2cc(-c3c(-c4ccncc4)nc(-c4ccc(S(C)(=O)=O)cc4C)n3C)ccc2c1 and stop.
Result block: 3.79%

Query block: Item NCc1ccc(-n2c(-c3nonc3N)nc3cnccc32)cc1 : provide inhibition
Result block: 8.21%

Query block: State its inhibition: c1ccc(-c2n[nH]cc2-c2ccnc(-c3ccc(OCCN4CCOCC4)cc3)c2)nc1
Result block: -2.14%

Query block: Give the reported value of inhibition for this record: CCc1nccc2c1nc(-c1nonc1N)n2CC
Result block: 2.4%

Query block: Read the entry CNC(=O)c1cncc(/C=C/c2c(C)cccc2C)c1 and write its reported inhibition.
Result block: -5.13%

* * *

molecular target: Inhibitor of nuclear factor kappa-B kinase subunit beta (Homo sapiens) (UniProt O14920); conditions: at 0.1 µM;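 note: values are mean percent inhibition of IKKB, part of the GSK PKIS screening data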
Sequence (O14920 whole entry): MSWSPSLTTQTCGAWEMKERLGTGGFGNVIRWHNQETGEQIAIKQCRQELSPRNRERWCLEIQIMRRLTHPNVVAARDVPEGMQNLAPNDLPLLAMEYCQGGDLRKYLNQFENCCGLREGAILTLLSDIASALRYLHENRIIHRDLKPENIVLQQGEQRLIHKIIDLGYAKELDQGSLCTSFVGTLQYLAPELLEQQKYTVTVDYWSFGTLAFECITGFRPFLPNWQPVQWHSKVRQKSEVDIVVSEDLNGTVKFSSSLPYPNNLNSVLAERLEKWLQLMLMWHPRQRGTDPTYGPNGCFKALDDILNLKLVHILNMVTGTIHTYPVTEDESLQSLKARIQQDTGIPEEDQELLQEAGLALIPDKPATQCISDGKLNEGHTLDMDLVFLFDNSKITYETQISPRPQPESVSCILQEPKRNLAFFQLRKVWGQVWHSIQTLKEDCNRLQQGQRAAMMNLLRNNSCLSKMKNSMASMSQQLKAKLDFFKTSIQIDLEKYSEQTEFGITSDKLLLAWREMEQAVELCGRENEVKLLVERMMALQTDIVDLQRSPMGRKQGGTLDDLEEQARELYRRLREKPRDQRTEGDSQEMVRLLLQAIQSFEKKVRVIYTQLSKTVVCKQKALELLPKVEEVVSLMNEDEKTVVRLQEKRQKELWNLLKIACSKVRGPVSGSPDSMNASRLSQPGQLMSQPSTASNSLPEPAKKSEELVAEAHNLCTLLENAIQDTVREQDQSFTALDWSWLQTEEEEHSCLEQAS
Please use class 1 whenever inhibition is not below 6%, and class 0 whenever it is.

Query block: Evaluate COc1cccc(-n2cnc3c(N/N=C/c4ccncc4)ncnc32)c1 : inhibition at minimum 6%?
Result block: class 0

Query block: Confirm if inhibition reported for the molecule COc1ccc(C2=C(N3CCc4ccccc43)C(=O)NC2=O)cc1 is 6% or above.
Result block: class 1

Query block: Check the entry NC(=O)Cc1ccccc1Oc1nccc(-c2c(-c3ccc(F)cc3)ncn2C2CCNCC2)n1 : does inhibition equal or exceed 6%?
Result block: class 0

Query block: Please indicate if the recorded inhibition for NC(=O)c1ccc(Oc2nccc(-c3c(-c4ccc(F)cc4)ncn3C3CCNCC3)n2)cc1 meets or exceeds 6%.
Result block: class 1

Query block: Determine whether measured inhibition meets or exceeds 6% for Fc1ccc(-c2nc3n(c2-c2ccncc2)CCS3)cc1
Result block: class 1

* * *

target: Protein kinase C beta type (Homo sapiens); conditions: at 1 µM
Description: GSK_PKIS: PKC-beta2 (splice variant) mean inhibition at 1 uM [Nanosyn]
attribute_measured: inhibition (%)
# value in %; strip the unit string

Query block: Fetch value of inhibition on Protein kinase C beta type (Homo sapiens) for COc1cc2ncn(-c3cc(OCc4cccs4)c(C(N)=O)s3)c2cc1OC .
Result block: 4.99

Query block: Look up and report measured inhibition (Protein kinase C beta type (Homo sapiens)) for the following compound: O=C1NC(=O)C(c2cccc(Cl)c2)=C1Nc1ccc(Cl)c(C(=O)O)c1
Result block: 1.2

Query block: # assay system Protein kinase C beta type (Homo sapiens): give inhibition of NS(=O)(=O)c1ccc(N/N=C2\C(=O)Nc3ccc(C(=O)NCCCn4ccnc4)cc32)cc1;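 note: GSK PKIS screen, average inhibition of the PKC-beta2 splice variant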
Result block: 4.2

Query block: Lab note: Protein kinase C beta type (Homo sapiens) assay, enter inhibition for c1ccc(-c2n[nH]cc2-c2ccnc(-c3ccc(OCCN4CCOCC4)cc3)c2)nc1 here
Result block: 3.92

Query block: State the measured inhibition (Protein kinase C beta type (Homo sapiens)) of O=C(Nc1n[nH]c2nc(-c3ccc(O)cc3)c(Br)cc12)C1CC1
Result block: 57.6

Query block: Give measured inhibition for COc1cccc(-n2cnc3c(N/N=C/c4ccncc4)ncnc32)c1 (Protein kinase C beta type (Homo sapiens)).
Result block: 2.1

Query block: Report its inhibition with Protein kinase C beta type (Homo sapiens) as the test system: COc1cc(Nc2ncc3c(C)nc(-c4cccc(C(F)(F)F)c4)n3n2)cc(OC)c1OC
Result block: 2.31

Query block: Print Protein kinase C beta type (Homo sapiens) inhibition for Cc1ccc(NC(=O)c2ccoc2)cc1-c1ccc(C(=O)NCC2CC2)cc1 .
Result block: 0.92

Query block: Fill in: inhibition on Protein kinase C beta type (Homo sapiens), entry COc1ccc2cc(-c3c(-c4ccncc4)nc(-c4ccc(S(C)(=O)=O)cc4C)n3C)ccc2c1
Result block: 9.63

Query block: Give Protein kinase C beta type (Homo sapiens) inhibition for the following compound: Clc1ccc(CNc2nccc(-c3cnn4ncccc34)n2)cc1
Result block: 0.83

Query block: Print Protein kinase C beta type (Homo sapiens) inhibition for C/C(Nc1ccc(S(N)(=O)=O)cc1)=C1/C(=O)Nc2ccccc21 .
Result block: 1.28

* * *

target: MAP kinase-interacting serine/threonine-protein kinase 2 (Homo sapiens) (UniProt Q9HBH9); settings: at 1 µM
Sequence (Q9HBH9 whole entry, looked up): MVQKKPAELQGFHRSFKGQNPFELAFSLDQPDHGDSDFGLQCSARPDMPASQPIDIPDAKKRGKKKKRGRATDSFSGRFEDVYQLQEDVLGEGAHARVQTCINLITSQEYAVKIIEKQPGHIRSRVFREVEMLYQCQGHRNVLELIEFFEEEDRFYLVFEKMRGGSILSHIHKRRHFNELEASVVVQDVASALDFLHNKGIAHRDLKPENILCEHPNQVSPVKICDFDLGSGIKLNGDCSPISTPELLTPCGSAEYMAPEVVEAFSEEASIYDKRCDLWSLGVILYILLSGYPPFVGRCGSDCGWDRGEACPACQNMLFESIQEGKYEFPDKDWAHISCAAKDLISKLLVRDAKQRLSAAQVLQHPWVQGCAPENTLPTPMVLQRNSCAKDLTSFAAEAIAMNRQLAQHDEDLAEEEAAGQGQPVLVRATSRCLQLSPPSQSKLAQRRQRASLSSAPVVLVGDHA
Description: GSK_PKIS: MNK2 mean inhibition at 1 uM [Nanosyn]
Would you kindly list inhibition for each of these compounds?
Write down the numeric answer in % and omit the unit.

Query block: Please respond with reported inhibition (system MAP kinase-interacting serine/threonine-protein kinase 2 (Homo sapiens) (UniProt Q9HBH9)) for NC(=O)c1cc(-c2ccncc2)cc(-c2ccccc2)c1N .
Result block: 6.55

Query block: With MAP kinase-interacting serine/threonine-protein kinase 2 (Homo sapiens) (UniProt Q9HBH9) as the test system, provide measured inhibition for this compound: O=C(Nc1n[nH]c2cc(-c3cc(F)ccc3F)ccc12)C1CC1
Result block: 2.16

Query block: Param request: inhibition | system MAP kinase-interacting serine/threonine-protein kinase 2 (Homo sapiens) (UniProt Q9HBH9) | item CCN(CC)Cc1ccc(Nc2nccc(-c3cnn4ncccc34)n2)cc1
Result block: 8.84

Query block: Report value: inhibition, system: MAP kinase-interacting serine/threonine-protein kinase 2 (Homo sapiens) (UniProt Q9HBH9), compound: Nc1nccc(-c2c(-c3ccc(F)cc3)ncn2C2CCC(O)CC2)n1 (stereo unspecified)
Result block: 0.46

Query block: Using MAP kinase-interacting serine/threonine-protein kinase 2 (Homo sapiens) (UniProt Q9HBH9) as the test system, report measured inhibition of COc1cc(Nc2ncc(-c3ccccc3)o2)cc(OC)c1OC .
Result block: 24.2

Query block: Report its inhibition with MAP kinase-interacting serine/threonine-protein kinase 2 (Homo sapiens) (UniProt Q9HBH9) as the test system: CCC(=O)Nc1ccc(C)c(-c2ccc(C(=O)NCC3CC3)cc2)c1
Result block: 1.17

* * *

Assignment: determine reported inhibition for the given molecules.
biological target: Mitogen-activated protein kinase 3 (Homo sapiens) (UniProt P27361); conditions: at 1 µM;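 note: values are mean percent inhibition of MAPK3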
Sequence (P27361 whole entry): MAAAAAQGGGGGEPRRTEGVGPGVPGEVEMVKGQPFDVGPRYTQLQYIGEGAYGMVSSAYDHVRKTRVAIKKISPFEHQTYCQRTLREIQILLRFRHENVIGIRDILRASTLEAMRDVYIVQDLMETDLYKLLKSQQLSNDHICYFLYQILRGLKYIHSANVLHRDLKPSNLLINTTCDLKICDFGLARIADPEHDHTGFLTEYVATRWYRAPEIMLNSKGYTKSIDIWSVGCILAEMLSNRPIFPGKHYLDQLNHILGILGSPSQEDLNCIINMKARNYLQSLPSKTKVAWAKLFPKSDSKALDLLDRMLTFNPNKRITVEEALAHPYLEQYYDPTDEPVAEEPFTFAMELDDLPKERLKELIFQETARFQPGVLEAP

Query block: Please give measured inhibition of the following entry: Cc1ccc(NC(=O)c2ccoc2)cc1-c1ccc(C(=O)NCC2CC2)cc1
Result block: 2.32%

Query block: Read off the recorded inhibition for COc1cc(Nc2ncc3c(C)nc(-c4cccc(C(F)(F)F)c4)n3n2)cc(OC)c1OC
Result block: 7.25%

Query block: Write down inhibition measured for item N#Cc1ccc(Oc2nccc(-c3c(-c4ccc(F)cc4)ncn3C3CCNCC3)n2)cc1
Result block: 6.42%

Query block: Answer with reported inhibition of C[C@@H](Oc1cc(-n2cnc3ccc(OCC4CCN(C)CC4)cc32)sc1C(N)=O)c1ccccc1Cl
Result block: 7.74%

Query block: In one line, give reported inhibition of the entry CCN(CC)Cc1ccc(Nc2nccc(-c3cnn4ncccc34)n2)cc1 .
Result block: 7.61%

Query block: Give the reported inhibition for this molecule. COc1ccc2cc(-c3c(-c4ccncc4)nc(-c4ccc([S+](C)[O-])cc4C)n3C)ccc2c1 (centres undefined)
Result block: 0.97%

Query block: Give the measured inhibition for c1ccc(Oc2ccc(Nc3ncc(-c4ccccc4)o3)cc2)cc1
Result block: 1.29%

Query block: Provide measured inhibition value, entry: COc1cc(N2CCN(C(C)C)CC2)ccc1Nc1nc(Nc2ccc(F)cc2C(=O)NC[C@@H](O)CO)c2cc[nH]c2n1
Result block: 5.1%

Query block: # return recorded inhibition for input CN(C)c1ccc2c(c1)/C(=C/Nc1ccc(S(N)(=O)=O)cc1)C(=O)N2
Result block: 2.21%

Query block: Fill in reported inhibition for this entry: COC(=O)Nc1nc2ccc(Sc3ccc(NC(=O)Nc4cc(C(F)(F)F)ccc4F)cc3)cc2[nH]1
Result block: 1.55%

Query block: Entry CS(=O)(=O)CCNCc1cc(-c2cc3c(Nc4ccc(OCc5cccc(F)c5)c(Cl)c4)ncnc3s2)cs1 needs its inhibition filled in; supply it.
Result block: 4.92%

Query block: Indicate its recorded inhibition; the molecule in question is NC(=O)Cc1ccccc1Oc1nccc(-c2c(-c3ccc(F)cc3)ncn2C2CCNCC2)n1
Result block: 2.24%

Query block: Identify the reported inhibition for the following entry. Nc1nccc(-c2c(-c3ccc(F)cc3)ncn2C2CCC(O)CC2)n1 (centres undefined)
Result block: 0%

Query block: Report inhibition for c1ccc(-c2n[nH]cc2-c2ccnc(-c3ccc(OCCN4CCOCC4)cc3)c2)nc1
Result block: -2.62%

Query block: Determine its reported inhibition: NS(=O)(=O)c1ccc(N/N=C2\C(=O)Nc3ccc(-c4cnco4)cc32)cc1
Result block: 3.04%

Query block: Query inhibition for NC(=O)c1cc(-c2ccncc2)cc(-c2ccccc2)c1N
Result block: 5.5%

Query block: Let me know recorded inhibition for CN(C)CCCNc1nccc(-c2c(-c3ccc(F)cc3)nn3cc(C(F)(F)F)ccc23)n1 , thanks.
Result block: 2.96%

Query block: Give the reported value of inhibition for this record: Fc1ccc(-c2ncn(C3CCNCC3)c2-c2ccnc(Oc3ccc4c(c3)OCO4)n2)cc1
Result block: 10.1%

Query block: Provide inhibition value for the following molecule: COc1cc2ncn(-c3cc(OCCc4ccccc4)c(C(N)=O)s3)c2cc1OC
Result block: 0.82%
